Data credit: patent US20180016324A1

# target-or-test-system: T1, ZIKV (prM80E) with a C-terminal myc-myc-hexahistidine tag (Zika virus, UniProt A0A024B7W1 104-694)
# T1 construct: also called ZIKV (prM80E)-mmH; ZIKV-mmH
# procedure-details: SPR, mAb captured, 25C
measured-quantity: koff (s⁻¹)
Record the value in s⁻¹, omitting the unit from your answer.

stdin: Fill blank: measured koff of the binder H4H25598P (antibody, V domains shown) VH: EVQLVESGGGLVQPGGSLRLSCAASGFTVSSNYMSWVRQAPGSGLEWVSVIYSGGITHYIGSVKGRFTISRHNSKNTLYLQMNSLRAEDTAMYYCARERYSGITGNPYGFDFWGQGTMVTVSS VL: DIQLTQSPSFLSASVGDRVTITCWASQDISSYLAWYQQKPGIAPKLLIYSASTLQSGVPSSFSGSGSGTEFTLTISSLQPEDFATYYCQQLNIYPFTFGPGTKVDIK is ____.
stdout: 4.49e-05

stdin: Try the binder H4H25587P (antibody, V domains shown) VH: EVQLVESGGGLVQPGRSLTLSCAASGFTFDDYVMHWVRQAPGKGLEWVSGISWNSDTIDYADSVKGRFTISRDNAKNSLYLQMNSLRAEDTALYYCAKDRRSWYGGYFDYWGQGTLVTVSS VL: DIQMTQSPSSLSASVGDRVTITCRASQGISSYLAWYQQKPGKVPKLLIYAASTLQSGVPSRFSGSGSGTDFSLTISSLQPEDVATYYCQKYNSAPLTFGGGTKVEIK
stdout: 0.00422

stdin: Try the binder H4H25602P (antibody, V domains shown) VH: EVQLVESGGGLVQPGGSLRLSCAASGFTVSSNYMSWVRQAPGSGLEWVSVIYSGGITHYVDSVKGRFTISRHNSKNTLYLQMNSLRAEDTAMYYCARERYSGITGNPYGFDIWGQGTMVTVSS VL: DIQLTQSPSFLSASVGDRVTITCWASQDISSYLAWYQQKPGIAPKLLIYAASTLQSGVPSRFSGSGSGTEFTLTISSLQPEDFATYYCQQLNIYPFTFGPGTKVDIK
stdout: 1.95e-05
